The measurements presented in this section are drawn from patent US20230203162A1.

target: biotinylated MSLN (human MSLN in the MSLN/MUC16 competition ELISA) (human, UniProt Q13421 296-598, limits assumed, biotinylated); experiment: competition ELISA, scFv titrated with biotinylated MSLN; competitor coated MUC16
# key: entry, value: Maximum inhibition at highest sample conc.
Lab book: enter the figure in %, no units written.

Some entries whose results are on file:
[[record]]
binder = "anti-MSLN scFv PRO1925 (scFv, also called 54-32-A07-sc02) scFv: ALQMTQSPSSLSASVGDRVTITCQASQSISNYLAWYQQKPGKPPKFLIYDASDLASGVSSRFSGSGSGTDFTLTISSLQPEDFATYYCQQVYDSNNVENVFGTGTKVTVLGGGGGSGGGGSGGGGSGGGGSQSQLVESGGGLVQPGGSLRLSCAVSGFSLSSYAMGWVRQAPGKGLEYIGYISKIGTTYYASWAKGRFTISKDNSKNTVYLQMNSLRAEDTAVYFCARGSSSGGYLDDGFDPWGQGTLVTVSS"
recorded_number = 99.2

[[record]]
binder = "anti-MSLN scFv PRO1922 (scFv, also called 54-21-H03-sc01) scFv: DIQMTQSPSSLSASVGDRVTITCQASESIYSSLAWYQQKPGKAPKLLIYLASTLASGVPSRFSGSGSGTDFTLTISSLQPEDFATYYCQSTDYTTSTHRNSFGTGTKVTVLGGGGGSGGGGSGGGGSGGGGSEVQLVESGGGLVQPGGSLRLSCAASGFSFSTTYYMCWVRQAPGKGLEWIGCTNTASSVRTYYATWAKGRFTISRDNSKNTVYLQMNSLRAEDTAVYYCARDMGFADYALNLWGQGTLVTVSS"
recorded_number = 99.3


Exercise: # query: Maximum inhibition at highest sample conc. of entry reference anti-MSLN scFv PRO1795 (scFv, also called 54-22-H03-sc01) scFv: DIQMTQSPSSLSASVGDRVTITCQASESIGNYLAWYQQKPGKAPKLLIYSASTLASGVPSRFSGSGSGTDFTLTISSLQPEDFATYYCQSTDYGDSYIFGTGTKVTVLGGGGGSGGGGSGGGGSGGGGSEVQLVESGGGLVQPGGSLRLSCAASGISVSNDYYMCWVRQAPGKGLEWIGCISTYIGNTHYASWAKGRFTISRDNSKNTVYLQMNSLRAEDTAVYYCAKNAGYPGYRYAIDLWGQGTLVTVSS
Key: 99
